- ASSAY: Acute toxicity, rats
- TEST CONDITIONS: rat, in vivo, printed 'for oral administration', then first of 'respective administration'
ENDPOINT LABEL: LD50 (mg/kg)
Numeric answer only, unit mg/kg assumed.

**Query** What value of measured LD50 is listed for O=C(Nc1cc(Cl)c(O)c(Cl)c1)c1ccccc1O [Compound 1] ?
**Result** 2200

====

pIC50 reference
- SYSTEM NAME: histidine decarboxylase (Rattus norvegicus, UniProt P16453)
- Construct: a crude enzyme preparation obtained from fetal rats; from tissue
- ASSAY: Inhibition of Histidine Decarboxylase (14C-histamine formation)
- Format: biochemical, fetal rats
Just the number, please; pIC50 means minus log10 of the concentration in mol/L.

Some molecules with recorded pIC50:
                                    smiles  reading
0  Cc1ccc(C(=O)Nc2cc(Br)c(O)c(Br)c2)c(O)c1     6.10
1       O=C(Nc1ccc(O)c(Cl)c1)c1cc(Br)ccc1O     6.24
2       O=C(Nc1cc(Cl)c(O)c(Cl)c1)c1ccccc1O     7.66

**Query** What value of measured pIC50 is listed for O=C(Nc1cc(Br)c(O)c(Br)c1)c1ccccc1O ?
**Result** 7.64

**Query** What value of measured pIC50 is listed for Cc1ccc(C(=O)Nc2cc(Cl)c(O)c(Cl)c2)c(O)c1 ?
**Result** 7.02

====

- SYSTEM NAME: histidine decarboxylase (Rattus norvegicus, UniProt P16453)
- Construct: a crude enzyme preparation obtained from fetal rats; from tissue
- Sequence (P16453 1-656): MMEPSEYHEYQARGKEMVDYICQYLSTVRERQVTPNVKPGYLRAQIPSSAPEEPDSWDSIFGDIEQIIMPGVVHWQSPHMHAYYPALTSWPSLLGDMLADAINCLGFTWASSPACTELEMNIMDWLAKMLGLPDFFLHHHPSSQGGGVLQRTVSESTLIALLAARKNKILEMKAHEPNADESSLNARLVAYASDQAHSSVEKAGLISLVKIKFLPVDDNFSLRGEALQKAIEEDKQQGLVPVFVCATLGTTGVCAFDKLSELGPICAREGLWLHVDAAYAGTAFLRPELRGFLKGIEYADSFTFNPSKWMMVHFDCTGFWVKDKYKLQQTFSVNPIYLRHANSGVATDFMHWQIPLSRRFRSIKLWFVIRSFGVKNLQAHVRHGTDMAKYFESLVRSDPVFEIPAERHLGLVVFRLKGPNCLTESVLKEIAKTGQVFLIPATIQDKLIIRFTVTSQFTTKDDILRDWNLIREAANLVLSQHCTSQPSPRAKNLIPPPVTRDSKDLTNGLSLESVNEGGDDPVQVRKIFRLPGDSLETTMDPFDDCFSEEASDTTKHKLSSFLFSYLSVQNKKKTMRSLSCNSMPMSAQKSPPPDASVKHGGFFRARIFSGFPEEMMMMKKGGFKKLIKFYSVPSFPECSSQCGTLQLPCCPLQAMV
- ASSAY: Inhibition of Histidine Decarboxylase (14C-histamine formation)
- Format: biochemical, fetal rats
- TEST CONDITIONS: pH 6.8, two hours at 37° C.; read-out: Histidine Decarboxylase Inhibition ID50
- Description: After two hours of incubation at 37° C., the histamine 2-^14 C formed was collected on an ion exchange resin ("Amberlite" CG-50, ammonia type) from which, after washing with water, the histamine was liberated in 1N aqueous ammonia solution and radioactivity was measured.
Binning rule for recorded IC50: LOW (below 200 nM), MID (200 nM to below 500 nM), HIGH (500 nM or more)

**Query** State the class of the molecule shown: O=C(Nc1cc(Br)c(O)c(C(=O)O)c1)c1ccccc1O
**Result** MID

**Query** State the class of the molecule shown: CC(=O)Oc1ccc(O)cc1C(=O)Nc1cc(C)c(OC(C)=O)c(Cl)c1
**Result** HIGH

**Query** State the class of the molecule shown: Cc1cc(NC(=O)c2ccccc2O)cc(Cl)c1O
**Result** LOW

**Query** State the class of the molecule shown: CCC(=O)Oc1ccc(OC(=O)CC)c(C(=O)Nc2cc(Cl)c(N)c(C(=O)OC)c2)c1
**Result** HIGH

**Query** State the class of the molecule shown: O=C(Nc1cc(F)c(O)c(Cl)c1)c1ccccc1O
**Result** MID

**Query** State the class of the molecule shown: O=C(Nc1cc(Cl)c(O)c(Cl)c1)c1ccc(F)cc1O
**Result** LOW

**Query** State the class of the molecule shown: CC(=O)Oc1ccc(OC(C)=O)c(C(=O)Nc2cc(Cl)c(O)c(Cl)c2)c1
**Result** MID

**Query** State the class of the molecule shown: O=C(Nc1cc(Cl)c(O)c(C(=O)O)c1)c1ccccc1O
**Result** LOW

**Query** State the class of the molecule shown: Cc1cc(NC(=O)c2ccc(Br)cc2O)cc(C(=O)O)c1O
**Result** MID

**Query** State the class of the molecule shown: CCc1ccc(O)c(C(=O)Nc2cc(Br)c(O)c(CC)c2)c1
**Result** HIGH

**Query** State the class of the molecule shown: COc1c(Cl)cc(NC(=O)c2ccccc2O)cc1Cl
**Result** MID

**Query** State the class of the molecule shown: O=C(Nc1ccc(O)c(Br)c1)c1ccc(O)cc1O
**Result** LOW

**Query** State the class of the molecule shown: CC(=O)Oc1ccc(C(=O)Nc2cc(Cl)c(O)c(Cl)c2)c(OC(C)=O)c1
**Result** LOW

**Query** State the class of the molecule shown: CCOC(=O)c1cc(NC(=O)c2ccccc2OC(C)=O)cc(Cl)c1O
**Result** MID

**Query** State the class of the molecule shown: CC(=O)Oc1cc(O)ccc1C(=O)Nc1cc(C)c(OC(C)=O)c(Cl)c1
**Result** MID

**Query** State the class of the molecule shown: Nc1c(Cl)cc(NC(=O)c2ccccc2O)cc1Cl
**Result** LOW

**Query** State the class of the molecule shown: CCc1ccc(C(=O)Nc2cc(Br)c(O)c(CC)c2)c(O)c1
**Result** MID

**Query** State the class of the molecule shown: CCOc1c(Cl)cc(NC(=O)c2ccc(O)cc2O)cc1Br
**Result** MID

**Query** State the class of the molecule shown: O=C(Nc1ccc(O)c(Cl)c1)c1ccccc1O
**Result** HIGH

**Query** State the class of the molecule shown: CCC(=O)Oc1ccccc1C(=O)Nc1cc(Cl)c(OC(=O)CC)c(Cl)c1
**Result** LOW
